As shown below, each of these compounds has a reported log10(IC50) value.
Target: Ras farnesyl transferase (Rattus norvegicus, UniProt Q02293+Q04631)
Construct: endogenous in cells; host or cells: Rat2 fibroblasts transformed with C-Harvey-Ras, or with H-Ras carrying the K-Ras C-terminal polybasic lysine domain
Test: in vivo (cellular) Ras farnesyl transferase inhibitory activity, Rat2 cells expressing C-Harvey-Ras
Assay type: cell-based
Details: Rat2 cell line expressing C-Harvey-Ras; concentration inhibiting 50% of farnesyl binding of Ras protein; read-out: H-Ras CIC50
log10 IC50, nM

Observe how each entry below is paired with its result.
Chem smiles | System under test | log10(IC50)
CN1CCN(C(=O)c2cn(Cc3cncn3CC3CCN(C(=O)c4ccc5ccccc5c4)CC3)cc2-c2cccc3ccccc23)CC1 | Ras farnesyl transferase (Rattus norvegicus, UniProt Q02293+Q04631) | 2.54
CN1CCN(C(=O)c2cn(Cc3cncn3CC3CCN(C(=O)OCc4ccc(F)cc4)CC3)cc2-c2cccc3ccccc23)CC1 | Ras farnesyl transferase (Rattus norvegicus, UniProt Q02293+Q04631) | 1.10
COCCN(C)C(=O)c1cn(Cc2cncn2CC2CCN(C(=O)OCc3cccc4ccccc34)CC2)cc1-c1cccc2ccccc12 | Ras farnesyl transferase (Rattus norvegicus, UniProt Q02293+Q04631) | 1.00

QUERY: What value of log10(IC50) has been recorded for this entry: CN(C)CCN(C)C(=O)c1cn(Cc2cncn2CC2CCN(C(=O)OCc3ccccc3)CC2)cc1-c1cccc2ccccc12
RESULT: 3.00

QUERY: What value of log10(IC50) has been recorded for this entry: CC(C)c1nc(C(=O)N2CCC(Cn3cncc3Cn3cc(C(=O)N4CCN(C)CC4)c(-c4cccc5ccccc45)c3)CC2)cs1
RESULT: 0.70

QUERY: What value of log10(IC50) has been recorded for this entry: CN1CCN(C(=O)c2cn(Cc3cncn3CC3CCN(C(=O)OC/C=C/c4ccccc4)CC3)cc2-c2cccc3ccccc23)CC1
RESULT: 1.10

* * *

Target: Ras farnesyl transferase (Rattus norvegicus, UniProt Q02293+Q04631)
Construct: endogenous in cells; host or cells: Rat2 fibroblasts transformed with C-Harvey-Ras, or with H-Ras carrying the K-Ras C-terminal polybasic lysine domain
Test: in vivo (cellular) Ras farnesyl transferase inhibitory activity, Rat2 cells transformed with H-Ras fused with polybasic lysine domain of K-Ras
Format: cell-based
Conditions: Rat2 cell line transformed with H-Ras substituted with polybasic lysine domain at C-terminus of K-Ras; concentration inhibiting 50% of farnesyl binding; read-out: K-Ras CIC50
As shown below, each of these molecules has a reported IC50 value.

Observe how each entry below is paired with its result.
Chem smiles | IC50
COCCN(C)C(=O)c1cn(Cc2cncn2CC2CCN(C(=O)OCc3cccc4ccccc34)CC2)cc1-c1cccc2ccccc12 | 1 to 10 µM
CN1CCN(C(=O)c2cn(Cc3cncn3CC3CCN(C(=O)OCc4ccc5ccccc5c4)CC3)cc2-c2cccc3ccccc23)CC1 | 10 µM

QUERY: What value of IC50 has been recorded for this entry: CN1CCN(C(=O)c2cn(Cc3cncn3CC3CCN(C(=O)COc4ccccc4)CC3)cc2-c2cccc3ccccc23)CC1
RESULT: 10 to 50 µM

QUERY: What value of IC50 has been recorded for this entry: COCCN(C)C(=O)c1cn(Cc2cncn2CC2CCN(C(=O)OCC(C)C)CC2)cc1-c1cccc2ccccc12
RESULT: 1 to 10 µM

QUERY: What value of IC50 has been recorded for this entry: CC(C)c1nc(C(=O)N2CCC(Cn3cncc3Cn3cc(C(=O)N4CCN(C)CC4)c(-c4cccc5ccccc45)c3)CC2)cs1
RESULT: 10 to 50 µM

* * *

Target: Ras farnesyl transferase (Rattus norvegicus, UniProt Q02293+Q04631)
Construct: endogenous in cells; host or cells: Rat2 fibroblasts transformed with C-Harvey-Ras, or with H-Ras carrying the K-Ras C-terminal polybasic lysine domain
Test: in vivo (cellular) Ras farnesyl transferase inhibitory activity, Rat2 cells expressing C-Harvey-Ras
Assay type: cell-based
Conditions: Rat2 cell line expressing C-Harvey-Ras; concentration inhibiting 50% of farnesyl binding of Ras protein; read-out: H-Ras CIC50
pIC50: −log10 of the molar value.
Assay endpoint: pIC50

Observe how each entry below is paired with its result.
Compound | pIC50
COCCN(C)C(=O)c1cn(Cc2cncn2CC2CCN(C(=O)N3CCCc4ccccc43)CC2)cc1-c1cccc2ccccc12 [Compound 31] | 7.00 to 8.00
COCCN(C)C(=O)c1cn(Cc2cncn2CC2CCN(C(=O)OCc3csc(C(C)C)n3)CC2)cc1-c1cccc2ccccc12 [Compound 26] | 7.00 to 8.00
COCCN(C)C(=O)c1cn(Cc2cncn2CC2CCN(C(C)=O)CC2)cc1-c1cccc2ccccc12 [Compound 7] | 7.00 to 8.00
COCCN(C)C(=O)c1cn(Cc2cncn2CC2CCN(C(=O)OCc3ccccc3)CC2)cc1-c1cccc2ccccc12 [Compound 5] | 7.00 to 8.00
COCCN(C)C(=O)c1cn(Cc2cncn2CC2CCN(C(=O)N(C)Cc3ccccc3)CC2)cc1-c1cccc2ccccc12 [Compound 30] | 7.00 to 8.00

QUERY: What value of pIC50 has been recorded for this entry: CN1CCN(C(=O)c2cn(Cc3cncn3CC3CCN(C(=O)OCc4ccccc4)CC3)cc2-c2cccc3ccccc23)CC1 [Compound 38]
RESULT: 7.90

* * *

As shown below, each of these compounds has a reported pIC50 value.
Target: Ras farnesyl transferase (Rattus norvegicus, UniProt Q02293+Q04631)
Construct: endogenous in cells; host or cells: Rat2 fibroblasts transformed with C-Harvey-Ras, or with H-Ras carrying the K-Ras C-terminal polybasic lysine domain
Experiment: in vivo (cellular) Ras farnesyl transferase inhibitory activity, Rat2 cells transformed with H-Ras fused with polybasic lysine domain of K-Ras
Type: cell-based
Conditions: Rat2 cell line transformed with H-Ras substituted with polybasic lysine domain at C-terminus of K-Ras; concentration inhibiting 50% of farnesyl binding; read-out: K-Ras CIC50
pIC50: −log10 of the molar value.

Chem smiles | pIC50
COCCN(C)C(=O)c1cn(Cc2cncn2CC2CCN(C(=O)OCc3csc(C(C)C)n3)CC2)cc1-c1cccc2ccccc12 | 4.30 to 5.00
COCCN(C)C(=O)c1cn(Cc2cncn2CC2CCN(C(=O)OC/C=C/c3ccccc3)CC2)cc1-c1cccc2ccccc12 | 5.00 to 6.00
COCCN(C)C(=O)c1cn(Cc2cncn2CC2CCN(C(=O)OC/C=C(\C)CCC=C(C)C)CC2)cc1-c1cccc2ccccc12 | 5.00 to 6.00

QUERY: What value of pIC50 has been recorded for this entry: COCCN(C)C(=O)c1cn(Cc2cncn2CC2CCN(C(=O)c3ccc4ccccc4c3)CC2)cc1-c1cccc2ccccc12
RESULT: 5.00 to 6.00

QUERY: What value of pIC50 has been recorded for this entry: COCCN(C)C(=O)c1cn(Cc2cncn2CC2CCN(C(=O)NCc3ccccc3)CC2)cc1-c1cccc2ccccc12
RESULT: 4.30 to 6.00

QUERY: What value of pIC50 has been recorded for this entry: CN1CCN(C(=O)c2cn(Cc3cncn3CC3CCN(Cc4ccc(Oc5ccccc5)cc4)CC3)cc2-c2cccc3ccccc23)CC1
RESULT: 5.00

* * *

Molecular target: Ras farnesyl transferase (Rattus norvegicus, UniProt Q02293+Q04631)
Construct: endogenous in cells; host or cells: Rat2 fibroblasts transformed with C-Harvey-Ras, or with H-Ras carrying the K-Ras C-terminal polybasic lysine domain
Test: in vivo (cellular) Ras farnesyl transferase inhibitory activity, Rat2 cells expressing C-Harvey-Ras
Assay type: cell-based
Conditions: Rat2 cell line expressing C-Harvey-Ras; concentration inhibiting 50% of farnesyl binding of Ras protein; read-out: H-Ras CIC50
As shown below, each of these compounds has a reported pIC50 value.
Scale: negative log10 of molar concentration, which is what pIC50 denotes.

Chem smiles | pIC50
CN1CCN(C(=O)c2cn(Cc3cncn3CC3CCN(Cc4ccc(-c5ccccc5)cc4)CC3)cc2-c2cccc3ccccc23)CC1 | 7.30

Turning to the following compound.
QUERY: What value of pIC50 has been recorded for this entry: CN1CCN(C(=O)c2cn(Cc3cncn3CC3CCN(C(=O)N4CCc5ccccc5C4)CC3)cc2-c2cccc3ccccc23)CC1
RESULT: 7.60

* * *

Target: Ras farnesyl transferase (Rattus norvegicus, UniProt Q02293+Q04631)
Construct: endogenous in cells; host or cells: Rat2 fibroblasts transformed with C-Harvey-Ras, or with H-Ras carrying the K-Ras C-terminal polybasic lysine domain
Experiment: in vivo (cellular) Ras farnesyl transferase inhibitory activity, Rat2 cells expressing C-Harvey-Ras
Type: cell-based
Details: Rat2 cell line expressing C-Harvey-Ras; concentration inhibiting 50% of farnesyl binding of Ras protein; read-out: H-Ras CIC50
pIC50: −log10 of the molar value.
Assay endpoint: pIC50

Compound | pIC50
CS(=O)(=O)N1CCC(Cn2cncc2Cn2cc(C(=O)N3CCOCC3)c(-c3cccc4ccccc34)c2)CC1 [Compound 4] | 7.00 to 8.00
COCCN(C)C(=O)c1cn(Cc2cncn2CC2CCN(C(=O)OCC(C)C)CC2)cc1-c1cccc2ccccc12 [Compound 35] | 7.00 to 8.00

Turning to the following compound.
QUERY: What value of pIC50 has been recorded for this entry: COCCN(C)C(=O)c1cn(Cc2cncn2CC2CCN(C(=O)/C=C/c3ccccc3)CC2)cc1-c1cccc2ccccc12 [Compound 28]
RESULT: 7.00 to 8.00
